assay: physchem; conditions: organic solvent or mixture, thermodynamic from solid
readout: solubility (mM)

[
  {
    "compound": "CC1=CC(=O)c2ccccc2C1=O",
    "relation.qualifier": "=",
    "value": 300
  },
  {
    "compound": "c1ccc(N(c2ccccc2)c2ccccc2)cc1",
    "relation.qualifier": "<",
    "value": 100
  },
  {
    "compound": "c1ccc2c(c1)Sc1ccccc1S2 [Comparative example 2, Thianthrene, reference compound]",
    "relation.qualifier": "=",
    "value": 100
  },
  {
    "compound": "O=C1C=CC(=O)c2ccccc21",
    "relation.qualifier": "=",
    "value": 500
  },
  {
    "compound": "CN(C)c1ccc(N)cc1",
    "relation.qualifier": "=",
    "value": 2000
  }
]
